assay_target: Paired box protein Pax-6 (Homo sapiens)
procedure_details: ATG_Pax6_CIS: Attagene CIS-FACTORIAL HepG2 Assay for human Paired Box 6 (PAX6) (AID 2282956)
condition_set: HepG2 CIS-FACTORIAL PAX6 reporter transcription, RNA readout; actives raise or lower the signal
The source made the active and inactive calls. The calls were made as follows: active = hit-call score of the fitted dose curve at least 0.9, where 1 is the maximum; inactive = score below 0.9.
Outcome (select one): active, inactive

Study these solved cases before continuing.
CCCC(=O)C(CC)Sc1ccoc1C (centres undefined); inactive
CCCCCCCCCC(=O)OC; inactive
CC(C)CCCCCCCCCCCCCCC(=O)O; inactive
COC(CC(C)CCCC(C)(C)O)OC (centres undefined); inactive
C=C(C)C(=O)OCCOCCOCCOC(=O)C(=C)C; inactive
O=[N+]([O-])c1cccc(Cl)c1; inactive
COc1ccc(CCO)cc1; inactive
COc1cc(Cl)c(OC)cc1N; inactive
c1ccc2[nH]cnc2c1; inactive
Cc1ncc[nH]1; inactive

Incoming: Short answer needed: outcome of this test for CCCCCc1ccco1 ?
Outgoing: active

Incoming: Fill in: this test's call for C1CCCCC1 is ___
Outgoing: inactive

Incoming: Recorded test outcome, item C=CC(=O)OCCCC
Outgoing: inactive

Incoming: Test call, this molecule: CC(C)(C)OC(=O)c1ccc(O)cc1
Outgoing: inactive
